# System: NCI-H322M lung
# Experiment summary: NCI-60 one-dose screen, 48 h (100 = growth as untreated, 0 = no growth, -100 = all killed)
# Settings: 10 µM
# Protocol: Growth inhibition of the NCI-H322M human Non-Small Cell Lung tumor cell line is measured as a screen for anti-cancer activity. Cells are grown in 96 well plates and exposed to the test compound for 48 hours. Compounds are tested at a single concentration, which is 10^-5 M for most compounds. The reported endpoint is percent growth (GI% or GIPRCNT), where numbers from 0 - 100% represent growth inhibition, and numbers from -100% - 0 represent cell death. […]
About 83,000 compounds went through this panel and 20% of them were active in at least one assay; those are over-represented in the sample as a whole.
Form field: growth (one value per entry).
Value type: growth (%)

{"Compound": "Nc1nc(-c2ccccc2Cl)cc(-c2ccc(Cl)cc2Cl)n1", "Unit info": "%", "Measured result": 89.5}
{"Compound": "O=C1C(c2ccccc2)C2C=CC(C2)N1O (stereo unspecified)", "Unit info": "%", "Measured result": 102}
{"Compound": "CN(C)CCNC(=O)c1cccn2c(=O)c3cc4ccccc4cc3nc12", "Unit info": "%", "Measured result": 3.8}
{"Compound": "COc1ccc(NC(=O)CSc2nc3ccccc3c(=O)n2CCc2ccccc2)cc1", "Unit info": "%", "Measured result": 81.5}
{"Compound": "N#CCCN1C/C(=C/c2ccc(Cl)cc2)C(=O)/C(=C/c2ccc(Cl)cc2)C1", "Unit info": "%", "Measured result": -22.1}
{"Compound": "CSc1cc(SC)ncn1", "Unit info": "%", "Measured result": 105}
{"Compound": "CN(C)CCCn1c(=O)c2ccccc2c2cnc3[nH]ccc3c21", "Unit info": "%", "Measured result": 9.79}
{"Compound": "COc1ccc2c(c1)C(=O)c1c-2c(OCCN(C)C)nc2cc(OC)c(OC)cc12", "Unit info": "%", "Measured result": 57.2}
{"Compound": "CC1(C)Cc2c(sc3ncn4nc(-c5ccc(O)cc5)nc4c23)CO1", "Unit info": "%", "Measured result": 90.4}
{"Compound": "O=C(Nc1cccc(-n2cc(-c3ccncc3)c(-c3ccc(O)c(Cl)c3)n2)c1)c1cccc(C(F)(F)F)c1", "Unit info": "%", "Measured result": 47}
{"Compound": "CCOC(=O)C(NC(=O)C(Cl)Cl)C(O)c1ccccc1 (stereo unspecified)", "Unit info": "%", "Measured result": 105}
{"Compound": "COc1cc(-c2cc(/C=C/C(=O)c3ccc(F)c(F)c3)[nH]n2)cc(OC)c1OC", "Unit info": "%", "Measured result": 74.1}
{"Compound": "CN(C)c1ccc(-c2cc(-c3cccc(NS(C)(=O)=O)c3)nc(N)c2C#N)cc1", "Unit info": "%", "Measured result": 21.1}
{"Compound": "O=C(Nc1cccc(-n2cc(-c3ccncc3)c(-c3ccc(O)c(Cl)c3)n2)c1)c1ccc(N2CCOCC2)c(C(F)(F)F)c1", "Unit info": "%", "Measured result": 44.5}
{"Compound": "COc1ccc(-c2nn(-c3cccc(NC(=O)Nc4cc(C(F)(F)F)cc(C(F)(F)F)c4)c3)cc2-c2ccncc2)cc1Cl", "Unit info": "%", "Measured result": 4.66}
{"Compound": "O=C(N/N=C\\c1cc(Cl)ccc1[N+](=O)[O-])c1ccco1", "Unit info": "%", "Measured result": 126}
{"Compound": "COc1cc(-c2cc(/C=C3\\C(=O)Nc4cc(Cl)ccc43)[nH]n2)cc(OC)c1OC", "Unit info": "%", "Measured result": 47.5}
{"Compound": "O=C(Nc1cccc(-n2cc(-c3ccncc3)c(-c3ccc(O)c(Cl)c3)n2)c1)c1cc(C(F)(F)F)cc(C(F)(F)F)c1", "Unit info": "%", "Measured result": 74.3}
{"Compound": "N#CCCN(NC(=O)OCc1ccccc1)C(=O)OCc1ccccc1", "Unit info": "%", "Measured result": 109}
{"Compound": "c1ccc(CSc2nnc3c4c5c(sc4nc(-c4cccnc4)n23)CCCCCC5)cc1", "Unit info": "%", "Measured result": 99.7}
{"Compound": "CN(C)C(=S)N/N=C\\C=N/NC(=S)N(C)C", "Unit info": "%", "Measured result": 48.9}
{"Compound": "Cc1cc(Nc2ccc(Cl)cc2)nc(NCCCNc2ccnc3cc(Cl)ccc23)n1", "Unit info": "%", "Measured result": -0.971}
{"Compound": "COc1ccc2c(c1)C(=O)c1c-2c(=O)n(CCCN(C)C)c2cc(OC)c(OC)cc12", "Unit info": "%", "Measured result": 80}
{"Compound": "N#Cc1ncc(-c2ccc(C(F)(F)F)cc2)c(NCc2cc(C(F)(F)F)cc(C(F)(F)F)c2)n1", "Unit info": "%", "Measured result": 70.2}
{"Compound": "O=[N+]([O-])c1ccc(Oc2cccnc2)c([N+](=O)[O-])c1", "Unit info": "%", "Measured result": 94.8}
{"Compound": "Fc1cc(C(F)(F)F)ccc1-c1cncnc1NC1CCCCCC1", "Unit info": "%", "Measured result": 104}
{"Compound": "COc1cc(Nc2ncnc(Nc3ccc4c(n3)NC(=O)C(C)(C)O4)n2)cc(OC)c1OC", "Unit info": "%", "Measured result": 4.97}
{"Compound": "COc1cc(/C=N/NC(=O)c2ccccc2Nc2cccc(C(F)(F)F)c2)cc(OC)c1OC", "Unit info": "%", "Measured result": 47}
{"Compound": "COc1ccccc1CNCCCN1C(=O)c2ccc3c4c(ccc(c24)C1=O)C(=O)N(CCCN)C3=O", "Unit info": "%", "Measured result": -30.7}
{"Compound": "Nc1ccc2c(c1)Cc1cc(N)c(Br)cc1-2", "Unit info": "%", "Measured result": 113}
{"Compound": "CC(=O)N1N=C(c2ccc(Cl)cc2)CC1c1sc(Cl)nc1Cl (stereo unspecified)", "Unit info": "%", "Measured result": 62.9}
{"Compound": "O=C1c2ccc3c4c(ccc(c24)C(=O)N1CCNCc1ccccc1)C(=O)N(CCNCc1ccccc1)C3=O", "Unit info": "%", "Measured result": -43}
{"Compound": "O=[N+]([O-])c1ccc(Oc2cc(Cl)c(Cl)cc2Cl)c(C(F)(F)F)c1", "Unit info": "%", "Measured result": 98.1}
{"Compound": "CCCCCCCCCCCCCCCCCC(=O)OCCCCCCC", "Unit info": "%", "Measured result": 109}
{"Compound": "FC(F)(F)c1ccc(-c2cnc(Cl)nc2N2CCC3(CC2)OCCO3)cc1", "Unit info": "%", "Measured result": 91.7}
{"Compound": "Nc1cc2c(cc1Cl)-c1ccc([N+](=O)[O-])cc1/C2=N\\O", "Unit info": "%", "Measured result": 50.1}
{"Compound": "COc1ccc(Cl)cc1-n1nnc(-c2nc3ccccc3[nH]2)c1N", "Unit info": "%", "Measured result": 75}
{"Compound": "O=C(Nc1cccc(-n2cc(-c3ccncc3)c(-c3cc(O)cc(Cl)c3)n2)c1)c1ccc(N2CCOCC2)c(C(F)(F)F)c1", "Unit info": "%", "Measured result": 43.5}
{"Compound": "CCOC(=O)C1(CC(C)C)CCOC1=O (stereo unspecified)", "Unit info": "%", "Measured result": 104}
{"Compound": "CN(C)c1ccc(Cc2ccc(N(C)C)cc2Cl)c(Cl)c1", "Unit info": "%", "Measured result": 99.3}
{"Compound": "O=C1/C(=C\\c2ccccc2)CN(C(=O)c2ccccc2F)C/C1=C\\c1ccccc1", "Unit info": "%", "Measured result": 74.6}

----------
# System: SK-MEL-2 melanoma
# Experiment summary: NCI-60 one-dose screen, 48 h (100 = growth as untreated, 0 = no growth, -100 = all killed)
# Settings: 10 µM
# Experimental: Growth inhibition of the SK-MEL-2 human tumor cell line is measured as a screen for anti-cancer activity. Cells are grown in 96 well plates and exposed to the test compound for 48 hours. Compounds are tested at a single concentration, which is 10^-5 M for most compounds. The reported endpoint is percent growth (GI% or GIPRCNT), where numbers from 0 - 100% represent growth inhibition, and numbers from -100% - 0 represent cell death. For example, a value of 40 represents 60% growth inhibition. […]
This is part of a sample that, as a whole, favours compounds with a hit. Of some 83,000 tested, about 20% had one in any assay.
Tick condition met if growth is -30% or greater. Tick condition not met if growth is less than -30%.

{"Compound": "O=[N+]([O-])c1ccc(Oc2cc(Cl)c(Cl)cc2Cl)c(C(F)(F)F)c1", "Assigned class": "condition met"}
{"Compound": "CCOC(=O)C(=Cc1ccc(Br)cc1)C(=O)OCC", "Assigned class": "condition not met"}
{"Compound": "CC(=O)c1nc2ccccc2n1CCNC(N)=O", "Assigned class": "condition met"}
{"Compound": "O=C1N=NC2=C1c1c3ccccc3c(O)n1CC2", "Assigned class": "condition met"}
{"Compound": "O=C(Nc1ccncc1)C(=O)c1cn(S(=O)(=O)c2ccc(F)cc2)c2ccccc12", "Assigned class": "condition met"}
{"Compound": "COc1cc(/C(=C2/O[C@@H]([C@H]3COC(C)(C)O3)[C@H]3OC(C)(C)O[C@@H]23)c2ccc3ccccc3c2)cc(OC)c1OC", "Assigned class": "condition not met"}
{"Compound": "c1ccc([I+]c2ccccc2)cc1", "Assigned class": "condition met"}
{"Compound": "COc1cc(-c2cc(/C=C/C(=O)c3ccc4c(c3)OCO4)[nH]n2)cc(OC)c1OC", "Assigned class": "condition met"}
{"Compound": "Cn1c(C(N)=O)cc2c1-c1nc(Nc3ccccc3)ncc1CCC2", "Assigned class": "condition met"}
{"Compound": "CC(C)N(CCNc1nc(C(Cl)(Cl)Cl)nc2cc(Cl)ccc12)C(C)C", "Assigned class": "condition not met"}
{"Compound": "Nc1c(C(=O)Nc2cccc(Br)c2)sc2nc3c(cc12)C(O)CCC3 (stereo unspecified)", "Assigned class": "condition met"}
{"Compound": "CC1(C)N=C(N)N=C(N)N1c1ccc(CCc2ccccc2)c(Cl)c1", "Assigned class": "condition met"}
{"Compound": "COc1ccc(Nc2cc(C)nc(NCCCNc3ccnc4cc(Cl)ccc34)n2)cc1", "Assigned class": "condition not met"}
{"Compound": "Cc1cc(N(CCCNc2ccnc3cc(Cl)ccc23)Cc2ccc3c(c2)OCO3)nc(N2CCCCC2)n1", "Assigned class": "condition not met"}
{"Compound": "C#Cc1ccc(-n2c(/C=C/c3ccc(O)c(OC)c3)nc3ncccc3c2=O)cc1", "Assigned class": "condition met"}
{"Compound": "C#Cc1ccc(-n2c(/C=C/c3ccc(Cl)c(F)c3)nc3ncccc3c2=O)cc1", "Assigned class": "condition not met"}
{"Compound": "O=C1/C(=C\\c2ccc(Cl)cc2)CN(C(=S)Nc2ccccc2)C/C1=C\\c1ccc(Cl)cc1", "Assigned class": "condition met"}
{"Compound": "Cc1[nH]nc2c1C(c1cnn(C)c1)C(C#N)=C(N)O2 (stereo unspecified)", "Assigned class": "condition met"}
{"Compound": "COc1cc(-c2cc(/C=C3\\C(=O)Nc4ccccc43)[nH]n2)cc(OC)c1OC", "Assigned class": "condition met"}
{"Compound": "CC(C)C[C@H](NC(=O)[C@H](Cc1cccc2ccccc12)NS(=O)(=O)c1cccc2cccnc12)B(O)O", "Assigned class": "condition not met"}
{"Compound": "NC1(C(=O)O)CSSC1", "Assigned class": "condition met"}

Reference for the values: PubChem BioAssay (NCI)
